experimental_system: ATP-dependent translocase ABCB1 (Homo sapiens, UniProt P08183)
Sequence (P08183 whole entry): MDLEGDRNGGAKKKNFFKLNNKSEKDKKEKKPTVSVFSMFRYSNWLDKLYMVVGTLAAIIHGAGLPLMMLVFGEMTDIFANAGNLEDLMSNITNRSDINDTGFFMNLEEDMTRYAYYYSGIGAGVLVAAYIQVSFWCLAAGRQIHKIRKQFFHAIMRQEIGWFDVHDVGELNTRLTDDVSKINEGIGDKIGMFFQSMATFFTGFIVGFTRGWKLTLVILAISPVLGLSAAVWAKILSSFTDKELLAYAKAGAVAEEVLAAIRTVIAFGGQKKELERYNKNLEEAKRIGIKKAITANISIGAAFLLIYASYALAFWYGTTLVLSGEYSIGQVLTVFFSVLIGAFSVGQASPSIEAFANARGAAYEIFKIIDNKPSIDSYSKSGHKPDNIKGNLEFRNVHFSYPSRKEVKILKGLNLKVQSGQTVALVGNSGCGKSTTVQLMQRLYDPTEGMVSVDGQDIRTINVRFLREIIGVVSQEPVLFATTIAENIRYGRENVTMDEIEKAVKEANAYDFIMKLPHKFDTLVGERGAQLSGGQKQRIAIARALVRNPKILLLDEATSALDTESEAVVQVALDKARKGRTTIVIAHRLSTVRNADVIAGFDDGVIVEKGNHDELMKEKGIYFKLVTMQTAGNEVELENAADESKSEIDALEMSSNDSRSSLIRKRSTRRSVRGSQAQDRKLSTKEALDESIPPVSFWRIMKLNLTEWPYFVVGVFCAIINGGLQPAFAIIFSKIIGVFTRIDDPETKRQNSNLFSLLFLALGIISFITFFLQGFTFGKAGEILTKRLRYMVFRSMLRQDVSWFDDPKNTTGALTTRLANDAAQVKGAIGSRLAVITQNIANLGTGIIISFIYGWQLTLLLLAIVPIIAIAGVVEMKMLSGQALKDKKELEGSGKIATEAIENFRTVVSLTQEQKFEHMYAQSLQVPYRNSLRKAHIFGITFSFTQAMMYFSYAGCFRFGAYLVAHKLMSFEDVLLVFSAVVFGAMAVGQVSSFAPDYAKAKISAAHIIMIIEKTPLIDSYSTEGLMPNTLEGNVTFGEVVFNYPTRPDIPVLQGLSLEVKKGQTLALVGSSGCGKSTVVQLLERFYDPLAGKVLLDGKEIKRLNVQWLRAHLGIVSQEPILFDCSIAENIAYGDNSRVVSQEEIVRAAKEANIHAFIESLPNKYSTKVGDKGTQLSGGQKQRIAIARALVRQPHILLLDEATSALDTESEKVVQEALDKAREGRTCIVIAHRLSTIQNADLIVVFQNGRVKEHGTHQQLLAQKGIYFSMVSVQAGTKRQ
assay_method_text: Inhibition of P-glycoprotein in MDR human KBChR-8-5 cells assessed as uptake of vinblastin relative to control
Assay type: cell-based
Set-up: concentration or dose not given beside the values
assay_endpoint: Activity (%)

Please review the entries below; each comes with its answer.
>  <chemical_structure>
O=c1c2ccccc2n(CCCN2CCCC2)c2ccc(Cl)cc12

>  <Activity, %>
988

$$$$
>  <chemical_structure>
O=c1c2ccccc2n(CCCN(CCO)CCO)c2ccc(Cl)cc12

>  <Activity, %>
1017

$$$$
>  <chemical_structure>
O=c1c2ccccc2n(CCCCN2CCCCC2)c2ccc(Cl)cc12

>  <Activity, %>
1855

$$$$

(I) O=c1c2ccccc2n(CCCN2CCCCC2)c2ccc(Cl)cc12
(II) O=c1c2ccccc2n(CCCCN2CCN(CCO)CC2)c2ccc(Cl)cc12
Query :: For the two items I and II , which reports the higher Activity value? Reply briefly: the label of your chosen item.
Result :: II

* * *

assay_method_text: Dissociation constant, pKa of the compound
Assay type: physicochemical
assay_endpoint: pKa

Please review the entries below; each comes with its answer.
>  <chemical_structure>
O=c1c2ccccc2n(CCCCCl)c2ccc(Cl)cc12

>  <test_value>
8.85

$$$$
>  <chemical_structure>
CCN(CC)CCCn1c2ccccc2c(=O)c2cc(Cl)ccc21

>  <test_value>
5.37

$$$$
>  <chemical_structure>
O=c1c2ccccc2n(CCCN2CCCC2)c2ccc(Cl)cc12

>  <test_value>
5.21

$$$$
>  <chemical_structure>
CCN(CC)CCCCn1c2ccccc2c(=O)c2cc(Cl)ccc21

>  <test_value>
5.45

$$$$
>  <chemical_structure>
O=c1c2ccccc2n(CCCCN2CCOCC2)c2ccc(Cl)cc12

>  <test_value>
4.91

$$$$
>  <chemical_structure>
O=c1c2ccccc2[nH]c2ccc(Cl)cc12

>  <test_value>
8.29

$$$$
>  <chemical_structure>
CN1CCN(CCCCn2c3ccccc3c(=O)c3cc(Cl)ccc32)CC1

>  <test_value>
5.61

$$$$
>  <chemical_structure>
O=c1c2ccccc2n(CCCCN2CCCCC2)c2ccc(Cl)cc12

>  <test_value>
5.36

$$$$

(P) O=c1c2ccccc2n(CCCN2CCCCC2)c2ccc(Cl)cc12
(Q) O=c1c2ccccc2n(CCCCl)c2ccc(Cl)cc12
Query :: # query: argmin of pKa over P and Q Reply briefly: the label of your chosen item.
Result :: P
(P: 5.39, Q: 8.65)

* * *

experimental_system: ATP-dependent translocase ABCB1 (Homo sapiens, UniProt P08183)
assay_method_text: Inhibition of P-glycoprotein in MDR human KBChR-8-5 cells assessed as retention of [3H]VLB after 2 hrs
Assay type: cell-based
Set-up: concentration or dose not given beside the values
assay_endpoint: Activity (%)

>  <chemical_structure>
O=c1c2ccccc2[nH]c2ccc(Cl)cc12

>  <experimental_system>
ATP-dependent translocase ABCB1 (Homo sapiens, UniProt P08183)

>  <unit_descriptor>
%

>  <test_value>
49

$$$$
>  <chemical_structure>
O=c1c2ccccc2n(CCCCN2CCOCC2)c2ccc(Cl)cc12

>  <experimental_system>
ATP-dependent translocase ABCB1 (Homo sapiens, UniProt P08183)

>  <unit_descriptor>
%

>  <test_value>
76

$$$$
>  <chemical_structure>
O=c1c2ccccc2n(CCCN2CCN(CCO)CC2)c2ccc(Cl)cc12

>  <experimental_system>
ATP-dependent translocase ABCB1 (Homo sapiens, UniProt P08183)

>  <unit_descriptor>
%

>  <test_value>
56.5

$$$$
>  <chemical_structure>
O=c1c2ccccc2n(CCCN2CCOCC2)c2ccc(Cl)cc12

>  <experimental_system>
ATP-dependent translocase ABCB1 (Homo sapiens, UniProt P08183)

>  <unit_descriptor>
%

>  <test_value>
62

$$$$
>  <chemical_structure>
CN1CCN(CCCCn2c3ccccc3c(=O)c3cc(Cl)ccc32)CC1

>  <experimental_system>
ATP-dependent translocase ABCB1 (Homo sapiens, UniProt P08183)

>  <unit_descriptor>
%

>  <test_value>
75

$$$$
>  <chemical_structure>
O=c1c2ccccc2n(CCCN(CCO)CCO)c2ccc(Cl)cc12

>  <experimental_system>
ATP-dependent translocase ABCB1 (Homo sapiens, UniProt P08183)

>  <unit_descriptor>
%

>  <test_value>
66

$$$$
